# EXPERIMENTAL TARGET: T1, recombinant cynomolgus monkey PD-L1 with a C-terminal mouse IgG2a Fc tag (cynomolgus monkey (Macaca fascicularis))
# T1 construct: also called MfPD-L1-mFc; monkey PD-L1-mFc
# T1 sequence (chain, as listed by the source limits assumed): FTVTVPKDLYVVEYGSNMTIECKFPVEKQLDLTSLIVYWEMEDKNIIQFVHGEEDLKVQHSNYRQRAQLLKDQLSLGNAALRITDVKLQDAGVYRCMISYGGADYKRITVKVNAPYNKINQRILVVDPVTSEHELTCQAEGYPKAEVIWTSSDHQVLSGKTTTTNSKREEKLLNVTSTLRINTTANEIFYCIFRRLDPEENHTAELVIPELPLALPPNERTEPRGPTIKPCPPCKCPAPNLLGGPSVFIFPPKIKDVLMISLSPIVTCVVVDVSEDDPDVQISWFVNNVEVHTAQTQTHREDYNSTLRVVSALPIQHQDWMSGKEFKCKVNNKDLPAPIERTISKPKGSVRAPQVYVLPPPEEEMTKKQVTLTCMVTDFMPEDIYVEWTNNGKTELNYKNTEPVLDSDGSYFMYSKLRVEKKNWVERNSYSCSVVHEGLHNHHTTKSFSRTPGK
# MEASUREMENT PROTOCOL: SPR (Biacore), mAb captured, 25C
koff values, listed per item
Kindly format the answer as number then unit.

// known answers, use as guide
{"columns": ["BINDER", "koff"],
 "data": [
  ["H1H9329P (antibody, human IgG1, V domains shown) VH: EVQLVESGGGLVQSGGSLRLSCAASGFTFSSYWMSWVRQAPGKGLEWVANIKQDGSEKYYVDSVKGRFTISRDNAKNSLYLQMNSLRADDTAVYYCARDDIVVVPAPMGYYYYYFGMDVWGQGTTVTVSS VL: DIQMTQSPSSLSASVGDRVTITCRASQGIRNDLGWYQQKPGKAPKRLIYAASSLQSGVPSRFSGSGSGTEFTLTISSLQPEDFATYYCLQHNSYPYTFGQGTKLEIK", "0.000672 s⁻¹"],
  ["H1H8314N (antibody, human IgG1, V domains shown) VH: EVQLVESGGGVVRPGGSLRLSCAASGFTFDDYGMTWVRQAPGRGLEWVSGIHWHGKRTGYADSVKGRFTISRDNAKKSLYLQMNSLKGEDTALYHCVRGGMSTGDWFDPWGQGTLVIVSS VL: DIQMTQSPSSLSASLGDRVTITCRASQSINSYLNWYQQKPGKAPKLLIYVASSLQSGVPSRFSGSGSGTEFTLTISNLQPEDFATYYCQQSYSTPPITFGQGTRLEIK", "6.77e-05 s⁻¹"]
]}

Consider the record given below.
Look up koff: H1H8323N (antibody, human IgG1, V domains shown) VH: QVQLVQSGAEVKMPGSSVRVSCKASGGIFSSSTISWVRQAPGQGLEWMGEIIPVFGTVNYAQKFQDRVIFTADESTTTAYMELSSLKSGDTAVYFCARNWGLGSFYIWGQGTMVTVSS VL: EIVLTQSPGTLSLSPGERATLSCRASQSFNFNYLAWYQQKPGQAPRLLIYGASSRATGIPDRFSGSGSGTDFTLTINRLEPEDFGVFYCQQYESAPWTFGQGTKVEIK
6.16e-05 s⁻¹
